Recorded PC for the following molecules
# testSummary: Evaluated for Partition coefficient in n-octanol and phosphate buffer pH 7.4
# Type: physicochemical
# measurementParameters: octanol/water
Would you mind answering with just the numeric figure?

For orientation, consider the following solved cases.
Look at this molecule and give its reported PC. CCC(C)C(N)C(=O)OC[C@H]1O[C@@H](n2cc(C)c(=O)[nH]c2=O)C[C@@H]1N=[N+]=[N-].O=C(O)C(F)(F)F (some centres undefined)
10.3

What about this molecule? Cc1cn([C@H]2C[C@H](N=[N+]=[N-])[C@@H](COC(=O)C3=CN(C)C=CC3)O2)c(=O)[nH]c1=O
7.2

What about this molecule? Cc1cn([C@H]2C[C@H](N=[N+]=[N-])[C@@H](COC(=O)C(N)Cc3ccc(O)cc3)O2)c(=O)[nH]c1=O.O=C(O)C(F)(F)F (some centres undefined)
0.94

Let us move to another entry and its PC.
Look at this molecule and give its reported PC. Cc1cn([C@H]2C[C@H](N=[N+]=[N-])[C@@H](CO)O2)c(=O)[nH]c1=O
1.2

----------
# System: Human immunodeficiency virus 1
# testSummary: Evaluated in vitro for the concentration required to produce 50% inhibition of replication of HIV-1
# Assay type: functional, organism-based
Criterion: IC50 strictly less than 100 nM. Met: satisfied. Not met: not satisfied.

Confirm or reject: IC50 of Cc1cn([C@H]2C[C@H](N=[N+]=[N-])[C@@H](COC(=O)C(N)Cc3ccccc3)O2)c(=O)[nH]c1=O.O=C(O)C(F)(F)F (stereo partly specified) lies strictly below 100 nM
not satisfied

What about this compound? Cc1cn([C@H]2C[C@H](N=[N+]=[N-])[C@@H](COC(=O)C3=CN(C)C=CC3)O2)c(=O)[nH]c1=O
satisfied

What about this compound? CC1=C(/C=C/C(C)=C/C=C/C(C)=C/C(=O)OC[C@H]2O[C@@H](n3cc(C)c(=O)[nH]c3=O)C[C@@H]2N=[N+]=[N-])C(C)(C)CCC1
not satisfied

Continuing:
Confirm or reject: IC50 of Cc1cn([C@H]2C[C@H](N=[N+]=[N-])[C@@H](CO)O2)c(=O)[nH]c1=O lies strictly below 100 nM
not satisfied

What about this compound? Cc1cn([C@H]2C[C@H](N=[N+]=[N-])[C@@H](COC(=O)C(N)Cc3ccc(O)cc3)O2)c(=O)[nH]c1=O.O=C(O)C(F)(F)F (stereo partly specified)
not satisfied

----------
Recorded PC for the following compounds
# testSummary: Evaluated for Partition coefficient in n-octanol and phosphate buffer pH 7.4
# Assay type: physicochemical
# measurementParameters: octanol/water

For orientation, consider the following solved cases.
Look at this compound and give its reported PC. Cc1cn([C@H]2C[C@H](N=[N+]=[N-])[C@@H](COC(=O)c3cccnc3)O2)c(=O)[nH]c1=O
1.6

What about this compound? Cc1cn([C@H]2C[C@H](N=[N+]=[N-])[C@@H](COC(=O)C(N)CCCCN)O2)c(=O)[nH]c1=O.O=C(O)C(F)(F)F (stereo partly specified)
0.01

What about this compound? Cc1cn(C2CC(N=[N+]=[N-])C(COC(=O)CCC(N)C(=O)O)O2)c(=O)[nH]c1=O (stereo unspecified)
0.12

Continuing:
Look at this compound and give its reported PC. Cc1cn([C@H]2C[C@H](N=[N+]=[N-])[C@@H](COC(=O)CN3CCOCC3)O2)c(=O)[nH]c1=O
2.2

What about this compound? CC1=C(/C=C/C(C)=C/C=C/C(C)=C/C(=O)OC[C@H]2O[C@@H](n3cc(C)c(=O)[nH]c3=O)C[C@@H]2N=[N+]=[N-])C(C)(C)CCC1
17.9

What about this compound? Cc1cn([C@H]2C[C@H](N=[N+]=[N-])[C@@H](COC(=O)C(N)Cc3ccccc3)O2)c(=O)[nH]c1=O.O=C(O)C(F)(F)F (stereo partly specified)
3.3
